Source of measurements: PubChem BioAssay

ASSAY NOTES: basal HepG2 mitochondrial membrane potential changes, profiling panel, cell-based, JC-1 fluorescence, 24 h, 100 nL compound (AID 1167); also: test concentration not given here
CONDITION INFO: higher = more signal
Hi, to clarify the labels: t covers z-score from 0.7 upward, f covers anything below 0.7.

>  <COMPOUND>
CC(C)NC(=O)[C@@]1(Cc2ccccc2I)c2ccccc2C(=O)N(Cc2ccccc2)[C@H]1c1ccc(CO)cc1

>  <DISCRETE LABEL>
t

$$$$
>  <COMPOUND>
C=CCN1C(=O)[C@]2(O[C@H](CCO)[C@@H]([Si](C)(C)c3ccc(OC)cc3)[C@@H]2C)c2cc(NC(=O)[C@H](C)O)ccc21

>  <DISCRETE LABEL>
f

$$$$
>  <COMPOUND>
CS(=O)(=O)CCOC(=O)C1=CC(CCCO)=CC(c2cccs2)N(Cc2cc3c(cc2Br)OCO3)C=C1C(=O)OCCS(C)(=O)=O (configuration not stated)

>  <DISCRETE LABEL>
t

$$$$
>  <COMPOUND>
C=CC[C@@]1(C(=O)N2CCOCC2)N=C(c2ccc(OCCCO)cc2)O[C@@H]1c1ccccc1N=[N+]=[N-]

>  <DISCRETE LABEL>
t

$$$$
>  <COMPOUND>
C=C(CCCC)/C(=C/C[C@H](OC(C)=O)c1ccc(CO)o1)c1cnc2ccccc2c1

>  <DISCRETE LABEL>
f

$$$$
>  <COMPOUND>
CCCNC(=O)[C@@]1(c2ccc([N+](=O)[O-])cc2)CC(=O)N(CC23CC4CC(CC(C4)C2)C3)[C@@H]1c1ccc(CO)cc1

>  <DISCRETE LABEL>
f

$$$$

###

ASSAY NOTES: osmotic lysis modulators in infected erythrocytes, primary screen, PSAC antagonist project, cell-based, P. falciparum Indochina, OD700, 3 h (AID 1156)
CONDITION INFO: higher = more signal, called active from +8 up or from −8 down
Property: z-score; scope: individual molecules

>  <MOLECULE>
COC(=O)[C@@]1(Cc2ccc(F)cc2)[C@H]2c3cc(C(=O)N4CCCC4)n(Cc4cccc5ccccc45)c3C[C@H]2CN1C(=O)c1ccccc1

>  <z-score>
1.22

$$$$
>  <MOLECULE>
CO[C@H]1O[C@H](CO)[C@@H](OC(=O)Nc2ccc(Oc3ccccc3)cc2)[C@H](OC(=O)Nc2ccccc2)[C@H]1OC(=O)Nc1ccccc1

>  <z-score>
1.4

$$$$
>  <MOLECULE>
O=C1N(CCS(=O)(=O)c2ccccc2)c2ccccc2C[C@@]12COC(c1ccc(OCCCO)cc1)=N2

>  <z-score>
2.58

$$$$
>  <MOLECULE>
CN(C)C(=O)[C@]1(CCC(=O)OC(C)(C)C)N=C(c2ccc(OCCCO)cc2)O[C@@H]1c1ccccc1N=[N+]=[N-]

>  <z-score>
1.37

$$$$
>  <MOLECULE>
CC(c1ccccc1)C(O)C1C=CC2C(=O)NC(=O)C2N1Nc1ccccn1 (stereo not drawn)

>  <z-score>
-0.255

$$$$
>  <MOLECULE>
COCCOC(=O)N1C(=O)[C@@]2(c3cc(C#CC4(O)CCCCCC4)ccc31)[C@H](C(=O)N1CCCCCCC1)[C@H]1C(=O)O[C@H](c3ccccc3)[C@H](c3ccccc3)N1[C@@H]2c1ccccc1OCCO

>  <z-score>
1.05

$$$$
>  <MOLECULE>
CC(C)N1C(=O)C[C@@](C(=O)NCc2ccccc2)(c2ccc([N+](=O)[O-])cc2)[C@H]1c1ccc(CO)cc1

>  <z-score>
1.03

$$$$
>  <MOLECULE>
COC(=O)c1ccc(C(O)C2C=CC3C(=O)N(c4ccccc4)C(=O)C3N2Nc2ccc(C#N)cc2)o1 (stereo not drawn)

>  <z-score>
1.36

$$$$
>  <MOLECULE>
C=CCOC(=O)[C@@H]1[C@H]2C(=O)O[C@H](c3ccccc3)[C@H](c3ccccc3)N2[C@H](c2ccc(OCCOC(=O)[C@@H]3C[C@@H]4C(=O)N[C@@H](Cc5ccccc5)C(=O)N4[C@@H]3c3cccc(OCCO)c3)cc2)[C@@]12C(=O)Nc1ccc(I)cc12

>  <z-score>
2.09

$$$$
>  <MOLECULE>
O=C1C2C=CC(C(O)c3cccs3)N(Nc3ccccc3F)C2C(=O)N1c1ccccc1 (stereo not drawn)

>  <z-score>
-1.27

$$$$
>  <MOLECULE>
COCCOC(=O)N1C(=O)[C@@]2(c3cc(C#CCNC(N)=O)ccc31)[C@H](c1ccccc1OCCO)N1[C@H](c3ccccc3)[C@H](c3ccccc3)OC(=O)[C@H]1[C@@H]2C(N)=O

>  <z-score>
0.4

$$$$
>  <MOLECULE>
COc1ccc([Si](C)(C)[C@H]2[C@H](CCn3cc([C@H](O)c4ccccc4)nn3)O[C@@]3(C(=O)N(Cc4cccc(N5CCC5=O)c4)c4ccccc43)[C@@H]2C)cc1

>  <z-score>
-0.272

$$$$
>  <MOLECULE>
N#Cc1ccc(NN2C(C(O)c3cccs3)C=CC3C(=O)N(c4ccccc4)C(=O)C32)cc1 (stereo not drawn)

>  <z-score>
0.832

$$$$
>  <MOLECULE>
O=C1O[C@@H](c2ccccc2)[C@@H](c2ccccc2)N2[C@@H](c3ccc(O)cc3)[C@]3(C(=O)Nc4ccc(C#CC5=CCCCC5)cc43)[C@@H](C(=O)O)[C@H]12

>  <z-score>
-9.62

$$$$
>  <MOLECULE>
CC1=C2[C@@H](CCc3ccccc3)OB(O)C[C@@H]2n2c(=O)n(-c3ccccc3)c(=O)n2C1

>  <z-score>
-0.318

$$$$
>  <MOLECULE>
O=C/C=C/c1ccc2c(c1)OCO2

>  <z-score>
0.321

$$$$
>  <MOLECULE>
O=C(CS)NCCCCCCNC(=O)[C@H]1C[C@H]2C(=O)N3CCC[C@H]3C(=O)N2[C@H]1c1cccc(OCCO)c1

>  <z-score>
-0.645

$$$$
>  <MOLECULE>
C=CCNC(=O)[C@H]1[C@@H]2C(=O)O[C@@H](c3ccccc3)[C@@H](c3ccccc3)N2[C@@H](c2ccc(O)cc2)[C@]12C(=O)N(C(=O)OCCOC)c1ccc(C#CCCO)cc12

>  <z-score>
0.958

$$$$
>  <MOLECULE>
O=C(OCCF)C1=CCC(c2cccc(Cl)c2)O1 (stereo not drawn)

>  <z-score>
-0.628

$$$$
>  <MOLECULE>
C[C@]1(C(=O)NCc2ccccc2)c2ccccc2C(=O)N(Cc2cc(F)cc(C(F)(F)F)c2)[C@H]1c1ccc(CO)cc1

>  <z-score>
1.12

$$$$
>  <MOLECULE>
COC(=O)[C@@]1(Cc2ccccc2)N=C(c2ccc(OCCCO)cc2)O[C@H]1c1ccccc1N=[N+]=[N-]

>  <z-score>
1.79

$$$$
>  <MOLECULE>
O=C1OCC=C[C@H]2OC34C=CCN(c5ccc(Cl)cc5)C(=O)[C@H]3N(CCCCCCO)C(=O)[C@@H]4[C@@H]12 (stereo partly drawn)

>  <z-score>
0.497

$$$$
>  <MOLECULE>
C=C(CCCC)/C(=C/C[C@H](OC(C)=O)c1ccc(CO)o1)c1cnc2ccccc2c1

>  <z-score>
0.435

$$$$
>  <MOLECULE>
C=CCC(OC(C)=O)[C@@H]1[C@@H](N(Cc2ccc(-c3ccccc3)cc2)C(=O)Cc2ccc(F)cc2)c2cc(OCCCO)ccc2N1C(=O)c1ccc2ccccc2n1 (stereo partly drawn)

>  <z-score>
-0.385

$$$$
>  <MOLECULE>
CCCCCN1CC=CC23O[C@@H]4/C=C\CCCOC(=O)C4[C@H]2C(=O)N(CCCCCCO)[C@@H]3C1=O (stereo partly drawn)

>  <z-score>
-0.387

$$$$
>  <MOLECULE>
CC(=O)NCCCC[C@@H]1NC(=O)[C@@H]2C[C@H](C(=O)NCCCCCCNC(=O)CS)[C@H](c3ccc(O)cc3)N2C1=O

>  <z-score>
-1.8

$$$$
>  <MOLECULE>
O=C1N(CCS(=O)(=O)c2ccccc2)Cc2ccccc2[C@H]2OC(c3ccc(OCCCO)cc3)=N[C@@]12CCS(=O)(=O)c1ccccc1

>  <z-score>
3.2

$$$$
>  <MOLECULE>
CC(C)Cc1ccc(CN2CC[C@@H](NS(=O)(=O)c3ccccc3)C2)cc1

>  <z-score>
0.306

$$$$
